Target: RsTSPO WT (Cereibacter sphaeroides, UniProt Q9RFC8)
Sequence (Q9RFC8 1-158): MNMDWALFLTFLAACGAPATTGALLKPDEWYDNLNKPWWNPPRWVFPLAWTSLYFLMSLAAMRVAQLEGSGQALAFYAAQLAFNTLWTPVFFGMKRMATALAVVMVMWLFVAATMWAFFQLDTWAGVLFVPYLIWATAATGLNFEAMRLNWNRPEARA
observation.type: Kd (µM)
All answers are understood in µM, so give the number only.

Prompt line: Give recorded Kd. Nc1ccccc1C(=O)C[C@H](N)C(=O)O
Response line: 172
